biological target: purified human disc type II, PLA2 (Homo sapiens, UniProt P14555)
Sequence (P14555 21-144): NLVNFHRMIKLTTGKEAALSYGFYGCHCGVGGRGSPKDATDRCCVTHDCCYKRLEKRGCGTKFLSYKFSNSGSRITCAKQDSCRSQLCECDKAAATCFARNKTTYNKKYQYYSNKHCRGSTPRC
pIC50: −log10 of the molar value.
measured_property: pIC50

{"structure_as_smiles": "CCCCCCCC/C=C\\CCCCCCCC(=O)OCC(COC(=O)CCCCCCC/C=C\\CCCCCCCC)(COC(=O)CCCCCCC/C=C\\CCCCCCCC)NCCS(=O)(=O)O", "experimental_target": "purified human disc type II, PLA2 (Homo sapiens, UniProt P14555)", "value_measured": 5.60}
